protocol: Hemolytic activity in human erythrocytes at 20 uM after 18 hrs by colorimetric method
Type: ADME, cell-based, Erythrocyte
condition notes: read-out: Activity
endpoint label: hemolysis at 18 h, 20 µM

Q: Record request: hemolysis at 18 h, 20 µM value, item C=CCC/C=C/C=C/C=C/CC/C=C/C(O)C(O)[C@@H]1O[C@@H](C(O)C(O)C(=C)CCC(O)[C@H]2C[C@@H](O)[C@@H](O)[C@H](C(O)C(O)/C=C(\C)CCC(O)CC(O)C(O)C(C)CC(O)CC(C)/C=C(\C)CC(O)CC(C)CCC(O)CC(O)C(O)C(C)C(O)CCCC(O)CCCC(O)CCCC(O)/C=C/CC(O)/C=C/CO)O2)C[C@@H](O)[C@H]1O (stereo partly specified)
Ans: < 100%

All figures here come from ChEMBL document CHEMBL4130546.
